# target-system: aequorin (AEQ), cysteine-free mutant (Aequorea victoria, UniProt P07164, C152S/C159S/C187S)
# Sequence (P07164 8-196 C152S/C159S/C187S): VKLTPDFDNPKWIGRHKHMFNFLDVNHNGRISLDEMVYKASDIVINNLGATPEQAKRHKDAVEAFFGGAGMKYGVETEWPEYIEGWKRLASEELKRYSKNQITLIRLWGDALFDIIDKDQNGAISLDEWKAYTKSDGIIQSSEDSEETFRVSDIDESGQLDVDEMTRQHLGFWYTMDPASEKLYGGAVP
# assay-comment: AEQ bioluminescence inhibition assay
# Type: biochemical
pIC50: −log10 of the molar value.
observable: pIC50

[[record]]
compound = "Oc1cccc(-c2ccc(Cl)cc2)c1 [3-hydroxy-4'-chlorobiphenyl]"
observable = "pIC50"
modifier_sign = "<"
observed_value = 2.70

[[record]]
compound = "Oc1ccc(-c2cc(Cl)ccc2Cl)cc1 [4-hydroxy-2',5'-dichlorobiphenyl]"
observable = "pIC50"
modifier_sign = "="
observed_value = 3.86

[[record]]
compound = "Oc1c(Cl)cc(-c2ccccc2Cl)cc1Cl [4-hydroxy-2',3,5-trichlorobiphenyl]"
observable = "pIC50"
modifier_sign = "="
observed_value = 3.54

[[record]]
compound = "Oc1ccc(-c2cc(Cl)c(Cl)c(Cl)c2Cl)cc1Cl"
observable = "pIC50"
modifier_sign = "="
observed_value = 5.64

[[record]]
compound = "Oc1ccccc1-c1cc(Cl)c(Cl)c(Cl)c1Cl"
observable = "pIC50"
modifier_sign = "="
observed_value = 5.88

[[record]]
compound = "Oc1c(Cl)cc(-c2ccc(Cl)cc2Cl)cc1Cl [4-hydroxy-2',3,4',5-tetrachlorobiphenyl]"
observable = "pIC50"
modifier_sign = "="
observed_value = 4.76

[[record]]
compound = "Oc1ccc(-c2c(Cl)c(Cl)cc(Cl)c2Cl)c(Cl)c1"
observable = "pIC50"
modifier_sign = "="
observed_value = 5.01

[[record]]
compound = "Oc1ccccc1-c1c(Cl)cc(Cl)cc1Cl [2-hydroxy-2',4',6'-trichlorobiphenyl]"
observable = "pIC50"
modifier_sign = "="
observed_value = 3.81

[[record]]
compound = "Oc1cccc(-c2ccc(Cl)c(Cl)c2)c1O [2,3-dihydroxy-3',4'-dichlorobiphenyl]"
observable = "pIC50"
modifier_sign = "="
observed_value = 3.26

[[record]]
compound = "Oc1c(Cl)ccc(Cl)c1-c1cc(Cl)c(Cl)cc1Cl"
observable = "pIC50"
modifier_sign = "="
observed_value = 7.55

